system: S. haemolyticus AVAH 88-3; test: MIC, agar dilution; type: cell-based; settings: S. hemolyticus AVHAH 88-3; Table IA; unit assumed
Where a name gives a salt, the structure may show the parent alone.
Quick rule for you: Antibacterial activity (MIC) at 1 µg/mL or higher means yes (1), lower means no (0).

Lookup: Given the entry Br.CC(Br)C(=O)Nc1cc(N(C)C)c2c(c1O)C(=O)C1=C(O)C3(O)C(=O)C(C(N)=O)=C(O)C(N(C)C)C3CC1C2 (stereo not shown) , answer whether its Antibacterial activity (MIC) meets or surpasses 1 µg/mL.
Found: yes (1)

Lookup: Given the entry CN(C)c1cc(NC(=O)CN2CCC2)c(O)c2c1CC1CC3C(N(C)C)C(O)=C(C(N)=O)C(=O)C3(O)C(O)=C1C2=O (stereo not shown) , answer whether its Antibacterial activity (MIC) meets or surpasses 1 µg/mL.
Found: no (0)

Lookup: Given the entry CCCCCNCC(=O)Nc1cc(N(C)C)c2c(c1O)C(=O)C1=C(O)C3(O)C(=O)C(C(N)=O)=C(O)C(N(C)C)C3CC1C2.Cl.Cl (stereo not shown) , answer whether its Antibacterial activity (MIC) meets or surpasses 1 µg/mL.
Found: no (0)

Lookup: Given the entry CC(C(=O)Nc1cc(N(C)C)c2c(c1O)C(=O)C1=C(O)[C@]3(O)C(=O)C(C(N)=O)=C(O)[C@@H](N(C)C)C3CC1C2)N(C)C.Cl.Cl (stereo partly shown) , answer whether its Antibacterial activity (MIC) meets or surpasses 1 µg/mL.
Found: no (0)

Lookup: Given the entry CCCCCCNCC(=O)Nc1cc(N(C)C)c2c(c1O)C(=O)C1=C(O)[C@]3(O)C(=O)C(C(N)=O)=C(O)[C@@H](N(C)C)C3CC1C2 (stereo partly shown) [BBB, dihydrochloride] , answer whether its Antibacterial activity (MIC) meets or surpasses 1 µg/mL.
Found: no (0)

Lookup: Given the entry CN(C)c1cc(NC(=O)CNCC(=O)O)c(O)c2c1CC1CC3C(N(C)C)C(O)=C(C(N)=O)C(=O)C3(O)C(O)=C1C2=O (stereo not shown) , answer whether its Antibacterial activity (MIC) meets or surpasses 1 µg/mL.
Found: yes (1)

Lookup: Given the entry CN(C)CCCC(=O)Nc1cc(N(C)C)c2c(c1O)C(=O)C1=C(O)[C@]3(O)C(=O)C(C(N)=O)=C(O)[C@@H](N(C)C)C3CC1C2.Cl.Cl (stereo partly shown) , answer whether its Antibacterial activity (MIC) meets or surpasses 1 µg/mL.
Found: yes (1)

Lookup: Given the entry CN(C)c1cc(NC(=O)Cn2ccnc2)c(O)c2c1CC1CC3[C@H](N(C)C)C(O)=C(C(N)=O)C(=O)[C@@]3(O)C(O)=C1C2=O.Cl.Cl (stereo partly shown) , answer whether its Antibacterial activity (MIC) meets or surpasses 1 µg/mL.
Found: yes (1)

Lookup: Given the entry CN(C)c1cc(NC(=O)CN2CCOCC2)c(O)c2c1CC1CC3[C@H](N(C)C)C(O)=C(C(N)=O)C(=O)[C@@]3(O)C(O)=C1C2=O.Cl.Cl (stereo partly shown) , answer whether its Antibacterial activity (MIC) meets or surpasses 1 µg/mL.
Found: yes (1)

Lookup: Given the entry CN(C)CC(=O)Nc1cc(N(C)C)c2c(c1O)C(=O)C1=C(O)[C@]3(O)C(=O)C(C(=O)NCN4CCCCC4)=C(O)[C@@H](N(C)C)C3CC1C2 (stereo partly shown) , answer whether its Antibacterial activity (MIC) meets or surpasses 1 µg/mL.
Found: no (0)

Lookup: Given the entry CN(C)c1cc(NC(=O)CBr)c(O)c2c1CC1CC3[C@H](N(C)C)C(O)=C(C(N)=O)C(=O)[C@@]3(O)C(O)=C1C2=O.Cl.Cl (stereo partly shown) , answer whether its Antibacterial activity (MIC) meets or surpasses 1 µg/mL.
Found: yes (1)

Lookup: Given the entry CN(C)CC(=O)Nc1cc(N(C)C)c2c(c1O)C(=O)C1=C(O)[C@]3(O)C(=O)C(C(=O)NCN4CCCC4)=C(O)[C@@H](N(C)C)C3CC1C2 (stereo partly shown) , answer whether its Antibacterial activity (MIC) meets or surpasses 1 µg/mL.
Found: no (0)

====

system: E. coli UBMS 89-2 (Sensitive); assay: MIC, agar dilution; assay type: cell-based; details: E. coli UBMS 89-2 (Sensitive)
Exercise: state measured MIC for each of the compounds provided.

Lookup: // fetch MIC given entry CN(C)c1cc(NC(=O)c2ccccc2)c(O)c2c1CC1CC3C(N(C)C)C(O)=C(C(N)=O)C(=O)C3(O)C(O)=C1C2=O (stereo not drawn)
Found: >32 µg/mL

Lookup: // fetch MIC given entry CN(C)c1cc(NS(=O)(=O)c2ccc(Cl)cc2)c(O)c2c1CC1CC3C(N(C)C)C(O)=C(C(N)=O)C(=O)C3(O)C(O)=C1C2=O (stereo not drawn)
Found: >32 µg/mL

Lookup: // fetch MIC given entry CN(C)c1cc(NC(=O)C(F)(F)F)c(O)c2c1C[C@H]1C[C@H]3[C@H](N(C)C)C(O)=C(C(N)=O)C(=O)[C@@]3(O)C(O)=C1C2=O.O=S(=O)(O)O
Found: 32 µg/mL

Lookup: // fetch MIC given entry CC(=O)Nc1cc(I)c2c(c1O)C(=O)C1=C(O)C3(O)C(=O)C(C(N)=O)=C(O)C(N(C)C)C3CC1C2.O=S(=O)(O)O (stereo not drawn)
Found: 16 µg/mL

Lookup: // fetch MIC given entry CN(C)c1ccc(C(=O)Nc2cc(N(C)C)c3c(c2O)C(=O)C2=C(O)[C@]4(O)C(=O)C(C(N)=O)=C(O)[C@@H](N(C)C)[C@@H]4C[C@@H]2C3)cc1
Found: >32 µg/mL

Lookup: // fetch MIC given entry CC(=O)Nc1nc(C)c(S(=O)(=O)Nc2cc(N(C)C)c3c(c2O)C(=O)C2=C(O)C4(O)C(=O)C(C(N)=O)=C(O)C(N(C)C)C4CC2C3)s1 (stereo not drawn)
Found: >32 µg/mL

====

tested on: E. coli UBMS 89-2 (Sensitive); experiment: MIC, agar dilution; format: cell-based; details: E. coli UBMS 89-2 Tet Sens.; Table IA; unit assumed
quantity: log10 of Antibacterial activity (MIC) (log10 of the value in µg/mL)
Short version: log10 scale, Antibacterial activity (MIC), µg/mL.

Lookup: // fetch log10 of Antibacterial activity (MIC) given entry CN(C)c1cc(NC(=O)CNC2CCC2)c(O)c2c1CC1CC3C(N(C)C)C(O)=C(C(N)=O)C(=O)C3(O)C(O)=C1C2=O (stereo not drawn)
Found: -0.30

Lookup: // fetch log10 of Antibacterial activity (MIC) given entry CC(C)CNCC(=O)Nc1cc(N(C)C)c2c(c1O)C(=O)C1=C(O)C3(O)C(=O)C(C(N)=O)=C(O)C(N(C)C)C3CC1C2.Cl.Cl (stereo not drawn)
Found: -0.30

Lookup: // fetch log10 of Antibacterial activity (MIC) given entry CN(C)c1cc(NC(=O)CNCc2ccccc2)c(O)c2c1CC1CC3C(N(C)C)C(O)=C(C(N)=O)C(=O)C3(O)C(O)=C1C2=O.Cl.Cl (stereo not drawn)
Found: 0.60

Lookup: // fetch log10 of Antibacterial activity (MIC) given entry CN(C)CC(=O)Nc1cc(N(C)C)c2c(c1O)C(=O)C1=C(O)[C@]3(O)C(=O)C(C(N)=O)=C(O)[C@@H](N(C)C)C3CC1C2.Cl.Cl (stereo partly drawn)
Found: -0.60

Lookup: // fetch log10 of Antibacterial activity (MIC) given entry CNC(C)C(=O)Nc1cc(N(C)C)c2c(c1O)C(=O)C1=C(O)[C@]3(O)C(=O)C(C(N)=O)=C(O)[C@@H](N(C)C)C3CC1C2.Cl.Cl (stereo partly drawn)
Found: -0.30

Lookup: // fetch log10 of Antibacterial activity (MIC) given entry CN(C)CC(=O)Nc1cc(N(C)C)c2c(c1O)C(=O)C1=C(O)C3(O)C(=O)C(C(N)=O)=C(O)C(N(C)C)C3CC1C2 (stereo not drawn)
Found: -0.92

Lookup: // fetch log10 of Antibacterial activity (MIC) given entry CN(C)c1cc(NC(=O)CBr)c(O)c2c1CC1CC3[C@H](N(C)C)C(O)=C(C(N)=O)C(=O)[C@@]3(O)C(O)=C1C2=O.Cl.Cl (stereo partly drawn)
Found: 1.51

Lookup: // fetch log10 of Antibacterial activity (MIC) given entry CCCCN(C)CC(=O)Nc1cc(N(C)C)c2c(c1O)C(=O)C1=C(O)C3(O)C(=O)C(C(N)=O)=C(O)C(N(C)C)C3CC1C2.Cl.Cl (stereo not drawn)
Found: 0.30

====

system: S. aureus UBMS 90-3 (Sensitive); test: MIC, agar dilution; assay type: cell-based; details: S. aureus UBMS 90-3 (Sensitive)
Exercise: state measured MIC for each of the compounds provided.
Give your result in µg/mL as a bare value.

Lookup: Write MIC of COc1ccc(C(=O)Nc2cc(N(C)C)c3c(c2O)C(=O)C2=C(O)C4(O)C(=O)C(C(N)=O)=C(O)C(N(C)C)C4CC2C3)cc1 (stereo not drawn) [Q] ; system used: S. aureus UBMS 90-3 (Sensitive)
Found: 4

Lookup: Write MIC of CN(C)c1cc(NC(=O)c2c(F)c(F)c(F)c(F)c2F)c(O)c2c1CC1CC3C(N(C)C)C(O)=C(C(N)=O)C(=O)C3(O)C(O)=C1C2=O (stereo not drawn) [T] ; system used: S. aureus UBMS 90-3 (Sensitive)
Found: 2

Lookup: Write MIC of CC(=O)Nc1cc(I)c2c(c1O)C(=O)C1=C(O)C3(O)C(=O)C(C(N)=O)=C(O)C(N(C)C)C3CC1C2.O=S(=O)(O)O (stereo not drawn) [H] ; system used: S. aureus UBMS 90-3 (Sensitive)
Found: 0.12

Lookup: Write MIC of CN(C)c1cc(NC(=O)c2cccc(C(F)(F)F)c2)c(O)c2c1CC1CC3C(N(C)C)C(O)=C(C(N)=O)C(=O)C3(O)C(O)=C1C2=O (stereo not drawn) [U] ; system used: S. aureus UBMS 90-3 (Sensitive)
Found: 0.5

Lookup: Write MIC of CN(C)c1cc(NC(=O)C(F)(F)F)c(O)c2c1C[C@H]1C[C@H]3[C@H](N(C)C)C(O)=C(C(N)=O)C(=O)[C@@]3(O)C(O)=C1C2=O.O=S(=O)(O)O [I] ; system used: S. aureus UBMS 90-3 (Sensitive)
Found: 4

Lookup: Write MIC of COC(=O)Nc1cc(N(C)C)c2c(c1O)C(=O)C1=C(O)[C@]3(O)C(=O)C(C(N)=O)=C(O)[C@@H](N(C)C)C3CC1C2 (stereo partly drawn) [HH] ; system used: S. aureus UBMS 90-3 (Sensitive)
Found: 0.03
